assay: Cmax in Sprague-Dawley rat at 40 mg/kg, IG measured upto 48 hrs by LC-MS/MS analysis; assay type: ADME, organism-based; parameters: dose 40 mg/kg, time < 48 hrs, route ig; details: in vivo, po
endpoint_label: Cmax

>  <structure_as_smiles>
N#Cc1cncc(COc2cc(OCc3cccc(-c4ccccc4F)c3Cl)ccc2CNCCO)c1

>  <Cmax>
21500 ng/mL

$$$$

Now for another entry.
Entry `N#Cc1cccc(COc2cc(OCc3cccc(-c4ccccc4F)c3Cl)ccc2CNCC(=O)O)c1` , Cmax reported as 1290 ng/mL

* * *

assay: Clearance in Sprague-Dawley rat at 10 mg/kg, ip measured upto 48 hrs by LC-MS/MS analysis; format: ADME, organism-based; conditions: in vivo
Catalogue of CL/F values
Don't forget the unit after the value.

>  <structure_as_smiles>
N#Cc1cccc(COc2cc(OCc3cccc(-c4ccccc4F)c3Cl)ccc2CNCC(=O)O)c1

>  <CL/F>
78 mL/min/kg

$$$$

Now for another entry.
Entry `N#Cc1cncc(COc2cc(OCc3cccc(-c4ccccc4F)c3Cl)ccc2CNCCO)c1` , CL/F reported as 20.2 mL/min/kg

* * *

molecular target: UniProt:Q9NZQ7; assay: Binding affinity to human PD-L1 expressed in Escherichia coli strain BL21 assessed as dissociation constant by NMR spectroscopic analysis
endpoint_label: Kd

Entry `N#Cc1cncc(COc2cc(OCc3cccc(-c4ccccc4F)c3Cl)ccc2CNCCO)c1` , Kd reported as < 1000 nM

* * *

assay: Tmax in Sprague-Dawley rat at 8 mg/kg, iv measured upto 48 hrs by LC-MS/MS analysis; format: ADME, organism-based; conditions: in vivo
Catalogue of Tmax values

>  <structure_as_smiles>
N#Cc1cncc(COc2cc(OCc3cccc(-c4ccccc4F)c3Cl)ccc2CNCCO)c1

>  <observed_value>
4.8 min

$$$$

Entry `N#Cc1cccc(COc2cc(OCc3cccc(-c4ccccc4F)c3Cl)ccc2CNCC(=O)O)c1` , Tmax reported as 4.8 min

* * *

experiment: AUC (0 to infinity) in Sprague-Dawley rat at 8 mg/kg, iv measured upto 48 hrs by LC-MS/MS analysis; assay type: ADME, organism-based; parameters: time < 48 hrs, dose 8 mg/kg, route iv; details: in vivo
endpoint_label: AUC(0-inf) (ng·h/mL)
Please respond with the number in ng·h/mL and leave the unit unwritten.

>  <structure_as_smiles>
N#Cc1cncc(COc2cc(OCc3cccc(-c4ccccc4F)c3Cl)ccc2CNCCO)c1

>  <measurement_unit>
ng·h/mL

>  <AUC(0-inf)>
13400

$$$$

Entry `N#Cc1cccc(COc2cc(OCc3cccc(-c4ccccc4F)c3Cl)ccc2CNCC(=O)O)c1` , AUC(0-inf) reported as 1840

* * *

assay: Clearance in Sprague-Dawley rat at 8 mg/kg, iv measured upto 48 hrs by LC-MS/MS analysis; assay type: ADME, organism-based; details: Sprague-Dawley, in vivo
endpoint_label: clearance (mL/min/kg)
Please respond with the number in mL/min/kg and leave the unit unwritten.

Entry `N#Cc1cncc(COc2cc(OCc3cccc(-c4ccccc4F)c3Cl)ccc2CNCCO)c1` , clearance reported as 10

* * *

biological target: Programmed cell death protein 1/Programmed cell death 1 ligand 1 (Homo sapiens, UniProt Q9NZQ7); test: Inhibition of PD-1/PD-L1 interaction (unknown origin) incubated for 1 hr by HTRF assay
Sequence (Q15116 whole entry): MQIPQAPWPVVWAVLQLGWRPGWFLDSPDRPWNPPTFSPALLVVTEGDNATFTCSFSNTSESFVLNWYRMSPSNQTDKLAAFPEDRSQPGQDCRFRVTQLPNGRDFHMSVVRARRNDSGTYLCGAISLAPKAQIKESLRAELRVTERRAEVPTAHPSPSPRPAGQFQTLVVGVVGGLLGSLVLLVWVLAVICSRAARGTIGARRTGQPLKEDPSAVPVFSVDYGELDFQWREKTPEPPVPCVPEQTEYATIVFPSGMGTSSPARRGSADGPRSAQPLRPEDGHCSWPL
Sequence (Q9NZQ7 whole entry): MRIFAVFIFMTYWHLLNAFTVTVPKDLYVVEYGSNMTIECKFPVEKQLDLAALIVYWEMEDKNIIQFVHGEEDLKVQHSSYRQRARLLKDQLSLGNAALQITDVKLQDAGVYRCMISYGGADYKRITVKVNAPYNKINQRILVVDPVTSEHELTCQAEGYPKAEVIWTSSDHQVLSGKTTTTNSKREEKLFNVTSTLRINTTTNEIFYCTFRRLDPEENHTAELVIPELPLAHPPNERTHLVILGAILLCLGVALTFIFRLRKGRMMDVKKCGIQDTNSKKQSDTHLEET
Catalogue of pIC50 values
Interpret pIC50 as the negative base-10 log of the concentration measured in mol/L.

>  <compound>
COc1c(COc2ccc(CN3CCC(O)C3)c(OCc3cncc(C#N)c3)c2)cccc1-c1ccccc1 (centres undefined)

>  <pIC50>
5.21

$$$$
>  <compound>
COc1c(COc2ccc(CNCCO)c(OCc3ccc(F)cc3)c2)cccc1-c1ccccc1

>  <pIC50>
5.07

$$$$
>  <compound>
Cc1c(COc2ccc(CNCCO)c(OCc3cncc(C#N)c3)c2)cccc1-c1ccccc1F

>  <pIC50>
5.07

$$$$

Entry `COc1c(COc2ccc(CNCCNC(C)=O)c(OCc3cccc(F)c3)c2)cccc1-c1ccccc1` , pIC50 reported as 4.95

Entry `COc1c(COc2ccc(CNCCNC(C)=O)c(OCc3cccnc3)c2)cccc1-c1ccccc1` , pIC50 reported as 5.03
